- Tested on: PBMC (human peripheral blood mononuclear cells)
- test description: Cytotoxic activity, alamarBlue assay, 72 h (noncancer cells)
- Assay type: cell-based
- conditions: Homo sapiens
- Protocol: […] Cell viability was quantified using the alamarBlue assay according to Ahmed et al.. […] Absorbance at 570 nm and 600 nm was measured using the SpectraMax 190 Microplate Reader (Molecular Devices, Sunnyvale, CA, USA), and the drug effect was quantified as the percentage of control absorbance.
pIC50: −log10 of the molar value.
recorded metric: pIC50

given smiles	experimental result
COc1ccc2c(c1)C[C@@H]1NCCc3cc4c(c-2c31)OCO4	4.74
COc1cccc2c1C(=O)c1c(O)c3c(c(O)c1C2=O)C[C@@](O)(C(=O)CO)C[C@@H]3O[C@H]1C[C@H](N)[C@H](O)[C@H](C)O1	5.28

----------
Below: a set of entries, each annotated with reported IC50.
- System: K562 (human chronic myelogenous leukemia)
- test description: Cytotoxic activity, alamarBlue assay, 72 h
- Assay type: cell-based
- conditions: Homo sapiens; K562, alamarBlue, 72 h

compound	endpoint unit	IC50
COc1cccc2c1C(=O)c1c(O)c3c(c(O)c1C2=O)C[C@@](O)(C(=O)CO)C[C@@H]3O[C@H]1C[C@H](N)[C@H](O)[C@H](C)O1 [DOX, doxorubicin]	µM	0.3
COc1ccc2c(c1)C[C@@H]1NCCc3cc4c(c-2c31)OCO4 [XYL, xylopine]	µM	7.8
